These data points were gathered from paper PMC6681697.

System: LNCaP xenografts
Test: Ex vivo biodistribution and blocking studies in mice bearing LNCaP xenografts
Details: 1 h blocked (coinjection of DCFPyL 0.5 mg)
readout_label: stomach uptake
Answer format reminder: number followed by unit.

Lab book: stomach uptake of C[N+](C)(Cc1cn(CC(=O)N[C@@H](CCC(=O)O)C(=O)NCCCC[C@H](NC(=O)[C@H](CCC(=O)O)NC(=O)Cn2cc(C[N+](C)(C)C[B-](F)(F)F)nn2)C(=O)NC[C@H]2CC[C@H](C(=O)N[C@@H](Cc3ccc4ccccc4c3)C(=O)NCCCC[C@H](NC(=O)N[C@@H](CCC(=O)O)C(=O)O)C(=O)O)CC2)nn1)C[B-](F)(F)F [^18F-8] noted as 0.09 ± 0.04 %ID/g

Lab book: stomach uptake of C[N+](C)(Cc1cn(Cc2ccc(C(=O)NCCCC[C@H](NC(=O)N[C@@H](CCC(=O)O)C(=O)O)C(=O)O)cn2)nn1)C[B-](F)(F)F [^18F-3] noted as 0.06 ± 0.02 %ID/g

Lab book: stomach uptake of C[N+](C)(Cc1ccc(C(=O)NCCCC[C@H](NC(=O)N[C@@H](CCC(=O)O)C(=O)O)C(=O)O)cc1)C[B-](F)(F)F [^18F-1] noted as 0.11 ± 0.08 %ID/g

Lab book: stomach uptake of O=C(O)CC[C@H](NC(=O)N[C@@H](CCCCNC(=O)[C@H](Cc1ccc2ccccc2c1)NC(=O)[C@H]1CC[C@H](CNC(=O)Cn2cc(C[n+]3ccc([B-](F)(F)F)cc3)nn2)CC1)C(=O)O)C(=O)O [^18F-6] noted as 0.88 ± 0.41 %ID/g

Lab book: stomach uptake of O=C(O)CC[C@H](NC(=O)N[C@@H](CCCCNC(=O)c1ccc(Cn2cc(C[n+]3ccc([B-](F)(F)F)cc3)nn2)nc1)C(=O)O)C(=O)O [^18F-4] noted as 0.06 ± 0.02 %ID/g

Lab book: stomach uptake of C[N+](C)(Cc1cn(CC(=O)NC[C@H]2CC[C@H](C(=O)N[C@@H](Cc3ccc4ccccc4c3)C(=O)NCCCC[C@H](NC(=O)N[C@@H](CCC(=O)O)C(=O)O)C(=O)O)CC2)nn1)C[B-](F)(F)F [^18F-5] noted as 0.12 ± 0.10 %ID/g

Lab book: stomach uptake of C[N+](C)(Cc1cn(Cc2ccc(C(=O)NCCCC[C@H](NC(=O)N[C@@H](CCC(=O)O)C(=O)O)C(=O)O)cc2)nn1)C[B-](F)(F)F [^18F-2] noted as 0.06 ± 0.02 %ID/g

Lab book: stomach uptake of C[N+](C)(Cc1cn(CC(=O)NCCOCCOCCC(=O)N[C@@H](Cc2ccc3ccccc3c2)C(=O)NCCCC[C@H](NC(=O)N[C@@H](CCC(=O)O)C(=O)O)C(=O)O)nn1)C[B-](F)(F)F [^18F-7] noted as 1.55 ± 2.10 %ID/g
